Catalogue of % Remaining @ 2 h readings, one per entry.
# assay-procedure: Human plasma stability
# Format: in vitro ADME
# protocol-conditions: human, plasma, 2 h, 5 μM
observation-type: % Remaining @ 2 h (%)

[[record]]
molecule = "COc1cc(C#N)cc2[nH]cc(C(=O)OCC34CCN(CC3)CC4)c12 [Compound 77]"
observation_type = "% Remaining @ 2 h"
assay_value = 71.03

[[record]]
molecule = "Cc1c(OCC(F)(F)F)ccc2[nH]cc(C(=O)OCC34CCN(CC3)CC4)c12 [Compound 94]"
observation_type = "% Remaining @ 2 h"
assay_value = 76.38

[[record]]
molecule = "Cc1cc(C#N)cc2[nH]cc(C(=O)OCC34CCN(CC3)CC4)c12 [Compound 60]"
observation_type = "% Remaining @ 2 h"
assay_value = 89.46

[[record]]
molecule = "Cc1cc(Cl)cc2[nH]cc(C(=O)OCC34CCN(CC3)CC4)c12 [Compound 50]"
observation_type = "% Remaining @ 2 h"
assay_value = 100.92

[[record]]
molecule = "COCCOc1ccc2[nH]cc(C(=O)OCC34CCN(CC3)CC4)c2c1C [Compound 91]"
observation_type = "% Remaining @ 2 h"
assay_value = 81.12

[[record]]
molecule = "Cc1ccc2[nH]cc(C(=O)OCC34CCN(CC3)CC4)c2c1C [Compound 70]"
observation_type = "% Remaining @ 2 h"
assay_value = 71.56

[[record]]
molecule = "COc1cc(Br)c2c(C(=O)OCC34CCN(CC3)CC4)c[nH]c2c1 [Compound 48]"
observation_type = "% Remaining @ 2 h"
assay_value = 101.03

[[record]]
molecule = "Cc1cc(O)cc2[nH]cc(C(=O)OCC34CCN(CC3)CC4)c12 [Compound 83]"
observation_type = "% Remaining @ 2 h"
assay_value = 71.57

[[record]]
molecule = "O=C(OCC12CCN(CC1)CC2)c1c[nH]c2cc(F)cc(Br)c12 [Compound 41]"
observation_type = "% Remaining @ 2 h"
assay_value = 120.27


* * *

# assay-procedure: Metabolic stability assay in rat liver microsomes (RLM)
# Type: in vitro ADME
# protocol-conditions: rat, microsomes, 1 μM
Catalogue of RLM readings, one per entry.
observation-type: RLM

[[record]]
structure_as_smiles = "COc1cc(C#N)cc2[nH]cc(C(=O)OCC34CCN(CC3)CC4)c12"
observation_type = "RLM"
assay_value = "87.668 mL/min/kg"

[[record]]
structure_as_smiles = "O=C(OCC12CCN(CC1)CC2)c1c[nH]c2cc(O)cc(Cl)c12"
observation_type = "RLM"
assay_value = "32.4827 mL/min/kg"

[[record]]
structure_as_smiles = "Cc1c(F)ccc2[nH]cc(C(=O)OCC34CCN(CC3)CC4)c12"
observation_type = "RLM"
assay_value = "469.04 mL/min/kg"


* * *

Catalogue of pIC50 readings, one per entry.
# experimental-system: rat brain nicotinic receptor (α7 NAChR) (Rattus norvegicus (Rat))
# Type: binding
# protocol-conditions: Protocol No. 2; [3H] α-Bungarotoxin 0.4 nM, rat brain P2 membrane
pIC50: −log10 of the molar value. Counter-ions that a name gives are not always drawn.
observation-type: pIC50

[[record]]
compound = "Cc1c(OCC(F)(F)F)ccc2[nH]cc(C(=O)OCC34CCN(CC3)CC4)c12 [Compound 94]"
experimental_system = "rat brain nicotinic receptor (α7 NAChR) (Rattus norvegicus (Rat))"
value_operator = "="
assay_value = 6.79

[[record]]
compound = "COCCOc1ccc2[nH]cc(C(=O)OCC34CCN(CC3)CC4)c2c1C [Compound 91]"
experimental_system = "rat brain nicotinic receptor (α7 NAChR) (Rattus norvegicus (Rat))"
value_operator = "="
assay_value = 6.66

[[record]]
compound = "COc1cc(C)cc2[nH]cc(C(=O)OCC34CCN(CC3)CC4)c12 [Compound 85]"
experimental_system = "rat brain nicotinic receptor (α7 NAChR) (Rattus norvegicus (Rat))"
value_operator = "="
assay_value = 6.75

[[record]]
compound = "Cl.O=C(OCC12CCN(CC1)CC2)c1c[nH]c2cc(C(F)(F)F)ccc12 [Compound 90]"
experimental_system = "rat brain nicotinic receptor (α7 NAChR) (Rattus norvegicus (Rat))"
value_operator = "<"
assay_value = 5.52

[[record]]
compound = "COc1cc2[nH]cc(C(=O)OCC34CCN(CC3)CC4)c2cc1OC [Compound 87]"
experimental_system = "rat brain nicotinic receptor (α7 NAChR) (Rattus norvegicus (Rat))"
value_operator = "="
assay_value = 5.81

[[record]]
compound = "COCCCOc1ccc2[nH]cc(C(=O)OCC34CCN(CC3)CC4)c2c1C [Compound 92]"
experimental_system = "rat brain nicotinic receptor (α7 NAChR) (Rattus norvegicus (Rat))"
value_operator = "="
assay_value = 7.12

[[record]]
compound = "Cc1cc2c(C(=O)OCC34CCN(CC3)CC4)c[nH]c2cc1C#N [Compound 84]"
experimental_system = "rat brain nicotinic receptor (α7 NAChR) (Rattus norvegicus (Rat))"
value_operator = "="
assay_value = 5.48

[[record]]
compound = "Cc1cc(OC(=O)C(C)(C)C)cc2[nH]cc(C(=O)OCC34CCN(CC3)CC4)c12 [Compound 89]"
experimental_system = "rat brain nicotinic receptor (α7 NAChR) (Rattus norvegicus (Rat))"
value_operator = "="
assay_value = 5.97

[[record]]
compound = "CC(=O)Nc1cc(C)c2c(C(=O)OCC34CCN(CC3)CC4)c[nH]c2c1 [Compound 93]"
experimental_system = "rat brain nicotinic receptor (α7 NAChR) (Rattus norvegicus (Rat))"
value_operator = "="
assay_value = 5.88

[[record]]
compound = "Cc1c(OCCO)ccc2[nH]cc(C(=O)OCC34CCN(CC3)CC4)c12 [Compound 95, 2,2,2-trifluoroacetate salt]"
experimental_system = "rat brain nicotinic receptor (α7 NAChR) (Rattus norvegicus (Rat))"
value_operator = "="
assay_value = 6.67

[[record]]
compound = "COc1c(OCC(F)(F)F)ccc2[nH]cc(C(=O)OCC34CCN(CC3)CC4)c12 [Compound 88]"
experimental_system = "rat brain nicotinic receptor (α7 NAChR) (Rattus norvegicus (Rat))"
value_operator = "="
assay_value = 6.68


* * *

# assay-procedure: Metabolic stability assay in rat liver microsomes (RLM)
# Type: in vitro ADME
# protocol-conditions: rat, microsomes, 1 μM, pH 7.4
Catalogue of RLM readings, one per entry.
observation-type: RLM

[[record]]
structure_as_smiles = "O=C(OCC12CCN(CC1)CC2)c1c[nH]c2cc(O)ccc12"
observation_type = "RLM"
assay_value = "25.92 mL/min/kg"

[[record]]
structure_as_smiles = "O=C(OCC12CCN(CC1)CC2)c1c[nH]c2cccc(Br)c12"
observation_type = "RLM"
assay_value = "175.569 mL/min/kg"

[[record]]
structure_as_smiles = "O=C(OCC12CCN(CC1)CC2)c1c[nH]c2ccc(F)cc12"
observation_type = "RLM"
assay_value = "208.73 mL/min/kg"

[[record]]
structure_as_smiles = "O=C(OCC12CCN(CC1)CC2)c1c[nH]c2cccc(Cl)c12"
observation_type = "RLM"
assay_value = "183.6 mL/min/kg"

[[record]]
structure_as_smiles = "Cc1cccc2[nH]cc(C(=O)OCC34CCN(CC3)CC4)c12"
observation_type = "RLM"
assay_value = "379.107 mL/min/kg"


* * *

# experimental-system: rat brain nicotinic receptor (α7 NAChR) (Rattus norvegicus (Rat), UniProt Q05941)
# Sequence (Q05941 23-502 limits assumed): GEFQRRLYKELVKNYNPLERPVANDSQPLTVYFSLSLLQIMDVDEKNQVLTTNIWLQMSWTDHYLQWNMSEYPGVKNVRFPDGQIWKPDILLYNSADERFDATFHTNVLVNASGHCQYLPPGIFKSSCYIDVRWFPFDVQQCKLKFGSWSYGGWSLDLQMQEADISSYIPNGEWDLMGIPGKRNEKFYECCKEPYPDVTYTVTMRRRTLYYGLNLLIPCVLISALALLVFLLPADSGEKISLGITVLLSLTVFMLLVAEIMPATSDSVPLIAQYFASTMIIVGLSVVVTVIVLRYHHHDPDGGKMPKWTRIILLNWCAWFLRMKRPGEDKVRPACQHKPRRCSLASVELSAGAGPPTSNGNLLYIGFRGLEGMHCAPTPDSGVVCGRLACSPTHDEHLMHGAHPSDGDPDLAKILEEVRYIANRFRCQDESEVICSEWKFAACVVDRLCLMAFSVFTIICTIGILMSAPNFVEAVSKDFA
# Assay type: binding
# protocol-conditions: Protocol No. 2; [3H] α-Bungarotoxin 0.4 nM, rat brain P2 membrane
Counter-ions that a name gives are not always drawn.
observation-type: Ki (nM)

[[record]]
compound = "CC(=O)Nc1cc(C)c2c(C(=O)OCC34CCN(CC3)CC4)c[nH]c2c1"
experimental_system = "rat brain nicotinic receptor (α7 NAChR) (Rattus norvegicus (Rat), UniProt Q05941)"
assay_value = 2870

[[record]]
compound = "Cc1c(OCC(F)(F)F)ccc2[nH]cc(C(=O)OCC34CCN(CC3)CC4)c12"
experimental_system = "rat brain nicotinic receptor (α7 NAChR) (Rattus norvegicus (Rat), UniProt Q05941)"
assay_value = 230

[[record]]
compound = "Cc1cc2c(C(=O)OCC34CCN(CC3)CC4)c[nH]c2cc1C#N"
experimental_system = "rat brain nicotinic receptor (α7 NAChR) (Rattus norvegicus (Rat), UniProt Q05941)"
assay_value = 7180

[[record]]
compound = "COCCOc1ccc2[nH]cc(C(=O)OCC34CCN(CC3)CC4)c2c1C"
experimental_system = "rat brain nicotinic receptor (α7 NAChR) (Rattus norvegicus (Rat), UniProt Q05941)"
assay_value = 859

[[record]]
compound = "Cc1c(OCCO)ccc2[nH]cc(C(=O)OCC34CCN(CC3)CC4)c12 [Compound 95, 2,2,2-trifluoroacetate salt]"
experimental_system = "rat brain nicotinic receptor (α7 NAChR) (Rattus norvegicus (Rat), UniProt Q05941)"
assay_value = 414

[[record]]
compound = "COCCCOc1ccc2[nH]cc(C(=O)OCC34CCN(CC3)CC4)c2c1C"
experimental_system = "rat brain nicotinic receptor (α7 NAChR) (Rattus norvegicus (Rat), UniProt Q05941)"
assay_value = 133

[[record]]
compound = "COc1cc(C)cc2[nH]cc(C(=O)OCC34CCN(CC3)CC4)c12"
experimental_system = "rat brain nicotinic receptor (α7 NAChR) (Rattus norvegicus (Rat), UniProt Q05941)"
assay_value = 357

